- TEST_SUMMARY: RP-HPLC retention time (read by the paper as polarity)
- Type: physicochemical
- CONDITION_SUMMARY: incubation of BE 1-31; Jupiter C4 300 A column, water/acetonitrile gradient with 0.1% formic acid, 200 µl/min, MS TIC detection
Where no end group is shown, it is not given here.
Exam item: assign criterion met to entries whose RT is below 20 min and criterion not met to entries at or above 20 min. Note that a value of exactly 20 min receives criterion not met.

INSERT INTO measurements (substance, assigned_label) VALUES
  ('BE 19-31: beta-endorphin C-terminal fragment, residues 19-31 (KNAIIKNAYKKGE; Beta-endorphin; UniProt P01189 255-267, looked up, fragment)', 'criterion met'),
  ('BE 1-16: beta-endorphin N-terminal fragment, residues 1-16 (YGGFMTSEKSQTPLVT; Beta-endorphin; UniProt P01189 237-252, looked up, fragment)', 'criterion not met'),
  ('BE 10-31: beta-endorphin fragment, residues 10-31 (SQTPLVTLFKNAIIKNAYKKGE; Beta-endorphin; UniProt P01189 246-267, looked up, fragment)', 'criterion not met'),
  ('BE 6-16: beta-endorphin fragment, residues 6-16 (TSEKSQTPLVT; Beta-endorphin; UniProt P01189 242-252, looked up, fragment)', 'criterion met'),
  ('YGGFMTSEKSQTPLVTLFKNAIIKNVHKKGQ [BE 1–31, Beta-endorphin]', 'criterion not met');

###

- TEST_SUMMARY: RP-HPLC retention time (read by the paper as polarity)
- Assay type: physicochemical
- CONDITION_SUMMARY: incubation of BE 1-13; Jupiter C4 column, water/acetonitrile gradient with 0.1% formic acid, MS TIC detection
Where no end group is shown, it is not given here.
MEASUREMENT_NAME: Rt

INSERT INTO measurements (substance, measurement_name, measured_value) VALUES
  ('BE 4-13: beta-endorphin fragment, residues 4-13 (FMTSEKSQTP; Beta-endorphin; UniProt P01189 240-249, looked up, fragment)', 'Rt', '15.7 min'),
  ('BE 2-12: beta-endorphin fragment, residues 2-12 (GGFMTSEKSQT; Beta-endorphin; UniProt P01189 238-248, looked up, fragment)', 'Rt', '16.2 min'),
  ('YGGFMTSEKSQ [BE 1–11]', 'Rt', '17.4 min'),
  ('BE 3-13: beta-endorphin fragment, residues 3-13 (GFMTSEKSQTP; Beta-endorphin; UniProt P01189 239-249, looked up, fragment)', 'Rt', '17.2 min'),
  ('BE 2-9: des-tyrosine beta-endorphin fragment, residues 2-9 (GGFMTSEK; Beta-endorphin; UniProt P01189 238-245, looked up, fragment)', 'Rt', '15.8 min');

###

Measured RT, listed per entry for reference.
- TEST_SUMMARY: RP-HPLC retention time (read by the paper as polarity)
- Format: physicochemical
- CONDITION_SUMMARY: incubation of BE 1-17; Jupiter C4 column, water/acetonitrile gradient with 0.1% formic acid, MS TIC detection
Where no end group is shown, it is not given here.
MEASUREMENT_NAME: RT (min)

INSERT INTO measurements (substance, measurement_name, measured_value) VALUES
  ('BE 1-16: beta-endorphin N-terminal fragment, residues 1-16 (YGGFMTSEKSQTPLVT; Beta-endorphin; UniProt P01189 237-252, looked up, fragment)', 'RT', 21.38),
  ('YGGFMTSEKSQTPLVTL [BE 1–17]', 'RT', 24.5),
  ('BE 3-16: beta-endorphin fragment, residues 3-16 (GFMTSEKSQTPLVT; Beta-endorphin; UniProt P01189 239-252, looked up, fragment)', 'RT', 20.43);

###

Measured RT, listed per entry for reference.
- TEST_SUMMARY: RP-HPLC retention time (read by the paper as polarity)
- Assay type: physicochemical
- CONDITION_SUMMARY: incubation of BE 1-31; Jupiter C4 300 A column, water/acetonitrile gradient with 0.1% formic acid, 200 µl/min, MS TIC detection
Where no end group is shown, it is not given here.
MEASUREMENT_NAME: RT (min)

INSERT INTO results (substance, measured_value) VALUES
  ('YGGFMTSEKSQ [BE 1–11]', 19.96),
  ('BE 6-31: beta-endorphin fragment, residues 6-31 (TSEKSQTPLVTLFKNAIIKNAYKKGE; Beta-endorphin; UniProt P01189 242-267, looked up, fragment)', 24.7),
  ('BE 15-24: beta-endorphin fragment, residues 15-24 (VTLFKNAIIK; Beta-endorphin; UniProt P01189 251-260, looked up, fragment)', 22.44);

###

- TARGET_OR_TEST_SYSTEM: mu-opioid receptors (MOR) (Mus musculus)
- Construct: FLAG; expressed in transfected cells
- Sequence (P42866 whole entry): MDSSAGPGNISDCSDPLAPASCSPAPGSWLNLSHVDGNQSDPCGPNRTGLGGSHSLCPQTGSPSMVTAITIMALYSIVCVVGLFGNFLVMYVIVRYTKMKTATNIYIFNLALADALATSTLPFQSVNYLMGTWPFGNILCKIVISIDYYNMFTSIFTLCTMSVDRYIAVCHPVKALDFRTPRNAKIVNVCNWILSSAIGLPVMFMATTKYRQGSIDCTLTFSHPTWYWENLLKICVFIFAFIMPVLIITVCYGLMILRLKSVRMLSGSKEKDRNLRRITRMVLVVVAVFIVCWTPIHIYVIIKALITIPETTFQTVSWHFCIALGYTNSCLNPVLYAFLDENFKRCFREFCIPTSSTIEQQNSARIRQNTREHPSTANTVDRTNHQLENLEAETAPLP
- TEST_SUMMARY: cell-based
- Type: cell-based, murine
Where no end group is shown, it is not given here.
MEASUREMENT_NAME: IC50 (nM)

INSERT INTO measurements (chain_sequence, measurement_name, measured_value) VALUES
  ('YGGFMTSEKSQTPLVTLFKNAIIKNVHKKGQ [BE 1–31, Beta-endorphin]', 'IC50', 24);

###

- TEST_SUMMARY: Biotransformation in homogenised inflamed tissue at pH 5.5 (LC/MS, mean residence time)
- CONDITION_SUMMARY: incubation of BE 1-31 (115 µM) in rat inflamed tissue homogenate, MES pH 5.5, 37°C, 120 min; AUMC/AUC of LC/MS peak intensity
Measured MRT, listed per entry for reference.
MEASUREMENT_NAME: MRT

INSERT INTO results (substance, measured_value) VALUES
  ('BE 10-24: beta-endorphin fragment, residues 10-24 (SQTPLVTLFKNAIIK; Beta-endorphin; UniProt P01189 246-260, looked up, fragment)', 11.3),
  ('BE 20-28: beta-endorphin intermediate fragment, residues 20-28 (NAIIKNAYK; Beta-endorphin; UniProt P01189 256-264, looked up, fragment)', 87.6),
  ('BE 20-31: beta-endorphin C-terminal fragment, residues 20-31 (NAIIKNAYKKGE; Beta-endorphin; UniProt P01189 256-267, looked up, fragment)', 72.2),
  ('BE 10-31: beta-endorphin fragment, residues 10-31 (SQTPLVTLFKNAIIKNAYKKGE; Beta-endorphin; UniProt P01189 246-267, looked up, fragment)', 29),
  ('BE 10-18: beta-endorphin fragment, residues 10-18 (SQTPLVTLF; Beta-endorphin; UniProt P01189 246-254, looked up, fragment)', 13.3);

###

- TEST_SUMMARY: Biotransformation in homogenised inflamed tissue at pH 5.5 (LC/MS, mean residence time)
- CONDITION_SUMMARY: incubation of BE 1-11 (115 µM) in rat inflamed tissue homogenate, MES pH 5.5, 37°C, 120 min; AUMC/AUC of LC/MS peak intensity
Where no end group is shown, it is not given here.
MEASUREMENT_NAME: MRT

INSERT INTO assay_data (substance, measured_value) VALUES
  ('BE 2-11: des-tyrosine beta-endorphin fragment, residues 2-11 (GGFMTSEKSQ; Beta-endorphin; UniProt P01189 238-247, looked up, fragment)', 15),
  ('BE 2-9: des-tyrosine beta-endorphin fragment, residues 2-9 (GGFMTSEK; Beta-endorphin; UniProt P01189 238-245, looked up, fragment)', 17),
  ('YGGFMTSEKSQ [BE 1–11]', 11),
  ('BE 4-11: beta-endorphin fragment, residues 4-11 (FMTSEKSQ; Beta-endorphin; UniProt P01189 240-247, looked up, fragment)', 22.7),
  ('BE 3-11: beta-endorphin fragment, residues 3-11 (GFMTSEKSQ; Beta-endorphin; UniProt P01189 239-247, looked up, fragment)', 14);

###

- TEST_SUMMARY: Biotransformation in homogenised inflamed tissue at pH 5.5 (LC/MS, mean residence time)
- CONDITION_SUMMARY: incubation of BE 1-31 (115 µM) in rat inflamed tissue homogenate, MES pH 5.5, 37°C, 120 min; AUMC/AUC of LC/MS peak intensity
Where no end group is shown, it is not given here.
# binarize MRT: threshold 30 inclusive, high side T, low side F

INSERT INTO measurements (substance, assigned_label) VALUES
  ('BE 20-29: beta-endorphin fragment, residues 20-29 (NAIIKNAYKK; Beta-endorphin; UniProt P01189 256-265, looked up, fragment)', 'F'),
  ('BE 6-31: beta-endorphin fragment, residues 6-31 (TSEKSQTPLVTLFKNAIIKNAYKKGE; Beta-endorphin; UniProt P01189 242-267, looked up, fragment)', 'T'),
  ('BE 20-27: beta-endorphin intermediate fragment, residues 20-27 (NAIIKNAY; Beta-endorphin; UniProt P01189 256-263, looked up, fragment)', 'T'),
  ('BE 2-14: beta-endorphin fragment, residues 2-14 (GGFMTSEKSQTPL; Beta-endorphin; UniProt P01189 238-250, looked up, fragment)', 'F'),
  ('YGGFMTSEKSQTPLVTL [BE 1–17]', 'F'),
  ('YGGFMTSEKSQ [BE 1–11]', 'T'),
  ('YGGFMTSEKSQTPLVTLFKN [BE 1–20]', 'T'),
  ('BE 19-31: beta-endorphin C-terminal fragment, residues 19-31 (KNAIIKNAYKKGE; Beta-endorphin; UniProt P01189 255-267, looked up, fragment)', 'T'),
  ('YGGFMTSEKSQTPLVTLFKNAIIKNVHKKGQ [BE 1–31, Beta-endorphin]', 'F'),
  ('BE 10-16: beta-endorphin intermediate fragment, residues 10-16 (SQTPLVT; Beta-endorphin; UniProt P01189 246-252, looked up, fragment)', 'T'),
  ('BE 2-13: des-tyrosine beta-endorphin fragment, residues 2-13 (GGFMTSEKSQTP; Beta-endorphin; UniProt P01189 238-249, looked up, fragment)', 'T'),
  ('YGGFMTSEK [BE 1–9]', 'F'),
  ('BE 18-31: beta-endorphin fragment, residues 18-31 (FKNAIIKNAYKKGE; Beta-endorphin; UniProt P01189 254-267, looked up, fragment)', 'F');
